// data source = patent US10570152B2

The following are reported MIC results, target or system S. epidermidis ATCC 35984.
measurement-name: MIC (µg/mL)

> print(dat)
                                   compound  relation  result
1  CC1Sc2c(C(=O)O)c(=O)c3cc(F)c(N4CCN(C(=O)c5ccccn5)CC4)cc3n21 (stereo not shown) [Compound 31]         =    0.13
2  CC(=O)NC[C@H]1CN(c2ccc(N3CCN(C(=O)c4ccccn4)CC3)c(F)c2)C(=O)O1 [Compound 77]         =       4
3  CC1Sc2c(C(=O)O)c(=O)c3cc(F)c(N4CCN(C(=O)c5cccc[n+]5[O-])CC4)cc3n21 (stereo not shown) [Compound 34]         =    0.13
4  CC1Sc2c(C(=O)O)c(=O)c3cc(F)c(N4CCN(C(=O)NC(=N)N)CC4)cc3n21 (stereo not shown) [Compound 44]         =       4
5  CC(=O)NC[C@H]1CN(c2ccc(N3CCN(CC(=O)Nc4ccc5nc(N)[nH]c5c4)CC3)c(F)c2)C(=O)O1 [Compound 68]         >      16
6  CC1Sc2c(C(=O)O)c(=O)c3cc(F)c(N4CCN(C(=O)CNC(=O)c5cccc[n+]5[O-])CC4)cc3n21 (stereo not shown) [Compound 111]         >      16
7  CC1Sc2c(C(=O)O)c(=O)c3cc(F)c(N4CCN(C(=O)c5ccc([N+](=O)[O-])o5)CC4)cc3n21 (stereo not shown) [Compound 11]         <    0.03

====

The following are reported log10 MIC results, target or system S. aureus ATCC 43300.
measurement-name: log10 MIC (log10 of the value in µg/mL)

> print(dat)
                                   molecule  measurement.name  result
1  CC1Sc2c(C(=O)O)c(=O)c3cc(F)c(N4CCN(C(=O)c5ccc([N+](=O)[O-])o5)CC4)cc3n21 (stereo not drawn) [Compound 11]         log10 MIC   -1.52
2  CC(=O)NC[C@H]1CN(c2ccc(N3CCN(CC(=O)Nc4ncc([N+](=O)[O-])s4)CC3)c(F)c2)C(=O)O1 [Compound 55]         log10 MIC   -0.30
3  CC1Sc2c(C(=O)O)c(=O)c3cc(F)c(N4CCN(C(=O)NC(=N)N)CC4)cc3n21 (stereo not drawn) [Compound 44]         log10 MIC    0.60
4  CC1Sc2c(C(=O)O)c(=O)c3cc(F)c(N4CCN(C(=O)c5cccc(Br)n5)CC4)cc3n21 (stereo not drawn) [Compound 32]         log10 MIC   -1.22
5  CC(=O)NC[C@H]1CN(c2ccc(N3CCN(C(=O)c4ccccn4)CC3)c(F)c2)C(=O)O1 [Compound 77]         log10 MIC    0.90
6  CC(=O)NC[C@H]1CN(c2ccc(N3CCN(C(=O)c4cccc[n+]4[O-])CC3)c(F)c2)C(=O)O1 [Compound 78]         log10 MIC    1.20

====

The following are reported MIC results, target or system S. epidermidis ATCC 35984.
measurement-name: MIC

> print(dat)
                                   molecule        result
1  CC(=O)NC[C@H]1CN(c2ccc(N3CCN(CC(=O)Nc4ncc([N+](=O)[O-])s4)CC3)c(F)c2)C(=O)O1    0.06 µg/mL
2  CC1Sc2c(C(=O)O)c(=O)c3cc(F)c(N4CCN(CC(=O)Nc5ncc([N+](=O)[O-])s5)CC4)cc3n21 (stereo not shown)  < 0.03 µg/mL
3  CC1SC2C(C(=O)O)C(=O)c3cc(F)c(N4CCN(CC(=O)c5ccccn5)CC4)cc3N12 (stereo not shown)    0.13 µg/mL
4  CC1Sc2c(C(=O)O)c(=O)c3cc(F)c(N4CCN(Cc5ccc([N+](=O)[O-])o5)CC4)cc3n21 (stereo not shown)  < 0.03 µg/mL

====

# System: S. epidermidis ATCC 35984
Hi! Could you tag entries with MIC below 0.2 mg/L as Y, and those at or above as N? Much appreciated.

> print(dat)
                                    compound  assigned.class
 1  CC(=O)NC[C@H]1CN(c2ccc(N3CCN(C(=O)c4cccc[n+]4[O-])CC3)c(F)c2)C(=O)O1               N
 2  CC1Sc2c(C(=O)O)c(=O)c3cc(F)c(N4CCN(C(=O)CNC(=N)N)CC4)cc3n21 (centres unmarked)               N
 3  CC(=O)NC[C@H]1CN(c2ccc(N3CCN(Cc4nc5cc(Cl)c(Cl)cc5[nH]4)CC3)c(F)c2)C(=O)O1               N
 4  CC1Sc2c(C(=O)O)c(=O)c3cc(F)c(N4CCN(Cc5nc6cc(Cl)c(Cl)cc6[nH]5)CC4)cc3n21 (centres unmarked)               Y
 5  CC1Sc2c(C(=O)O)c(=O)c3cc(F)c(N4CCN(CC(=O)NC(=O)Nc5ccccc5)CC4)cc3n21 (centres unmarked)               Y
 6  Cc1ncc([N+](=O)[O-])n1CCN1CCN(c2cc3c(cc2F)c(=O)c(C(=O)O)c2n3C(C)S2)CC1 (centres unmarked)               Y
 7  CC(=O)NC[C@H]1CN(c2ccc(N3CCN(C(=O)c4coc(N)n4)CC3)c(F)c2)C(=O)O1               N
 8  CC1Sc2c(C(=O)O)c(=O)c3cc(F)c(N4CCN(Cc5nc6ccc(N)cc6[nH]5)CC4)cc3n21 (centres unmarked)               Y
 9  Cc1ncc([N+](=O)[O-])n1CC(O)CN1CCN(c2cc3c(cc2F)c(=O)c(C(=O)O)c2n3C(C)S2)CC1 (centres unmarked)               Y
10  CCNC(=O)N1CCN(c2cc3c(cc2F)c(=O)c(C(=O)O)c2n3C(C)S2)CC1 (centres unmarked)               N
11  CC(=O)NC[C@H]1CN(c2ccc(N3CCN(C(=O)CNC(=O)c4cccc[n+]4[O-])CC3)c(F)c2)C(=O)N1               N
12  CC(=O)NC[C@H]1CN(c2ccc(N3CCN(C(=O)c4csc(NC(=N)N)n4)CC3)c(F)c2)C(=O)O1               N
13  CC(=O)NC[C@H]1CN(c2ccc(N3CCN(C(=O)NC(=N)N)CC3)c(F)c2)C(=O)O1               N
14  CC(=O)NC[C@H]1CN(c2ccc(N3CCN(C(=O)c4cccc(Br)n4)CC3)c(F)c2)C(=O)O1               N
15  CC(=O)NC[C@H]1CN(c2ccc(N3CCN(Cc4nc5ccc([N+](=O)[O-])cc5[nH]4)CC3)c(F)c2)C(=O)O1               N
16  CC(=O)NC[C@H]1CN(c2ccc(N3CCN(C(=O)c4csc(N)n4)CC3)c(F)c2)C(=O)O1               N
17  CC(=O)NC[C@H]1CN(c2ccc(N3CCN(C(=O)c4c[nH]c5ccc([N+](=O)[O-])cc45)CC3)c(F)c2)C(=O)O1               N
18  CC1Sc2c(C(=O)O)c(=O)c3cc(F)c(N4CCN(CC(=O)Nc5ccc6nc(N)[nH]c6c5)CC4)cc3n21 (centres unmarked)               N
19  CC1Sc2c(C(=O)O)c(=O)c3cc(F)c(N4CCN(C(=O)c5cccc(Br)n5)CC4)cc3n21 (centres unmarked)               Y
20  CC1Sc2c(C(=O)O)c(=O)c3cc(F)c(N4CCN(Cc5nc6ccc([N+](=O)[O-])cc6[nH]5)CC4)cc3n21 (centres unmarked)               N

====

# System: S. epidermidis S12-1
measurement-name: MIC (µg/mL)

> print(dat)
                                    compound  measurement.name  relation  result
 1  CC1Sc2c(C(=O)O)c(=O)c3cc(F)c(N4CCN(CC(=O)NC(=O)Nc5ccccc5)CC4)cc3n21 (centres unmarked)               MIC         =       8
 2  CC(=O)NC[C@H]1CN(c2ccc(N3CCN(C(=O)c4cccc[n+]4[O-])CC3)c(F)c2)C(=O)O1               MIC         =       8
 3  CC(=O)NC[C@H]1CN(c2ccc(N3CCN(C(=O)c4coc(N)n4)CC3)c(F)c2)C(=O)O1               MIC         >      16
 4  CC1Sc2c(C(=O)O)c(=O)c3cc(F)c(N4CCN(Cc5nc6ccc(N)cc6[nH]5)CC4)cc3n21 (centres unmarked)               MIC         >      16
 5  CC(=O)NC[C@H]1CN(c2ccc(N3CCN(Cc4nc5cc(Cl)c(Cl)cc5[nH]4)CC3)c(F)c2)C(=O)O1               MIC         >      16
 6  CC(=O)NC[C@H]1CN(c2ccc(N3CCN(C(=O)CNC(=O)c4cccc[n+]4[O-])CC3)c(F)c2)C(=O)N1               MIC         >      16
 7  CC1Sc2c(C(=O)O)c(=O)c3cc(F)c(N4CCN(C(=O)NC(=N)N)CC4)cc3n21 (centres unmarked)               MIC         >      16
 8  CC(=O)NC[C@H]1CN(c2ccc(N3CCN(C(=O)NC(=N)N)CC3)c(F)c2)C(=O)O1               MIC         =       8
 9  CC1Sc2c(C(=O)O)c(=O)c3cc(F)c(N4CCN(CC(=O)Nc5ncc([N+](=O)[O-])s5)CC4)cc3n21 (centres unmarked)               MIC         =       4
10  CC1Sc2c(C(=O)O)c(=O)c3cc(F)c(N4CCN(C(=O)c5ccccn5)CC4)cc3n21 (centres unmarked)               MIC         =       8
11  CC1Sc2c(C(=O)O)c(=O)c3cc(F)c(N4CCN(C(=O)CNC(=N)N)CC4)cc3n21 (centres unmarked)               MIC         >      16
12  CC(=O)NC[C@H]1CN(c2ccc(N3CCN(C(=O)c4csc(N)n4)CC3)c(F)c2)C(=O)O1               MIC         >      16
13  CCNC(=O)N1CCN(c2cc3c(cc2F)c(=O)c(C(=O)O)c2n3C(C)S2)CC1 (centres unmarked)               MIC         >      16
14  CC(=O)NC[C@H]1CN(c2ccc(N3CCN(CC(=O)Nc4ccc5nc(N)[nH]c5c4)CC3)c(F)c2)C(=O)O1               MIC         >      16
15  CC(=O)NC[C@H]1CN(c2ccc(N3CCN(CC(=O)Nc4ncc([N+](=O)[O-])s4)CC3)c(F)c2)C(=O)O1               MIC         =     0.5
16  CC(=O)NC[C@H]1CN(c2ccc(N3CCN(C(=O)c4cccc(Br)n4)CC3)c(F)c2)C(=O)O1               MIC         =       4
17  CC(=O)NC[C@H]1CN(c2ccc(N3CCN(C(=O)c4c[nH]c5ccc([N+](=O)[O-])cc45)CC3)c(F)c2)C(=O)O1               MIC         >      16
